Entry source: patent US8524737B2

molecular target: human recombinant ROCK II (Homo sapiens); construct: recombinant human ROCK-II residues 11-552; His6 (N); assay: Determination of Rho Kinase Inhibition (ROCK II, Caliper peptide phosphorylation assay); conditions: tested in the form (salt or free base) obtained in the examples
Sequence (O75116 11-552): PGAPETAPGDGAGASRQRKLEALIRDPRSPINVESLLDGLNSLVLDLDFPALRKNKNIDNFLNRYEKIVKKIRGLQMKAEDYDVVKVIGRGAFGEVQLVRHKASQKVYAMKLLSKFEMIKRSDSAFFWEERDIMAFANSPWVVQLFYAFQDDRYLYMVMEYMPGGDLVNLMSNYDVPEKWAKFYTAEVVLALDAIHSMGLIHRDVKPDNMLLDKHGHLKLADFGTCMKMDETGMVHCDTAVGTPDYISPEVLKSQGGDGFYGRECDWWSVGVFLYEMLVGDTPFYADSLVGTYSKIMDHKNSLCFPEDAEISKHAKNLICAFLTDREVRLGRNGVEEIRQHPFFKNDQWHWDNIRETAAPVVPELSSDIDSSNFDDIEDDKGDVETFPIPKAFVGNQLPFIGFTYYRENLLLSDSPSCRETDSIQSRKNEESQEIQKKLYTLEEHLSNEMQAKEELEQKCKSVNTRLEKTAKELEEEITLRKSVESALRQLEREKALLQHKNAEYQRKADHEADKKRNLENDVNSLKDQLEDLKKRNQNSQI
quantity-measured: IC50

Here are 3 molecules together with their reported answers.
molecule: NC1(C2CC2)C2CC3CC1CC(Oc1cc4cc[nH]c(=O)c4cc1Cl)(C3)C2 (single isomer, unassigned)
target-or-system: human recombinant ROCK II (Homo sapiens)
IC50: 0.01 to 0.1 µM

molecule: CCCC1(N)C2CC3CC1CC(Oc1cc4cc[nH]c(=O)c4cc1Cl)(C3)C2 (single isomer, unassigned) [Example 5]
target-or-system: human recombinant ROCK II (Homo sapiens)
IC50: 0.01 to 0.1 µM

molecule: N[C@H]1C[C@H]2COC[C@@H](C1)[C@@H]2Oc1cc2cc[nH]c(=O)c2cc1Cl
target-or-system: human recombinant ROCK II (Homo sapiens)
IC50: 0.01 to 0.1 µM

The molecule identified as C=CCC1(N)C2CC3CC1CC(Oc1cc4cc[nH]c(=O)c4cc1Cl)(C3)C2 (single isomer, unassigned) [Example 4] registered its IC50 at 0.1 to 1 µM

What the record says about N[C@H]1C[C@H]2COC[C@@H](C1)[C@H]2Oc1cc2cc[nH]c(=O)c2cc1Cl : IC50 is 0.01 to 0.1 µM

Briefly, IC50 measured for N[C@H]1C[C@H]2CSC[C@@H](C1)[C@H]2Oc1cc2cc[nH]c(=O)c2cc1Cl : 0.01 to 0.1 µM
